Hello, the source for this data is the array DNA melting data of Ke et al. (doi:10.1101/2024.01.08.574731), in case you need it.

# ASSAY INFO: folding enthalpy; higher = less favourable; fluorescence melt of hairpins on a sequencing array, two-state fit
# CONDITION CONTEXT: sodium 0.088 M
# thresholds on folding enthalpy define classes: low bin = under -40 kcal/mol, mid bin = from -40 kcal/mol up to -20 kcal/mol, high bin = -20 kcal/mol and over

GCATCGGGAAACCGACGC ((.((((....)))).)) : low bin
GATCTACGGTAGATC ((((((...)))))) : mid bin
GGATGCGAAAGCATTTCC ((((((....)))..))) : high bin
GTGAAGACGAAAGTCCAC (((..(((....)))))) : high bin
GACCGAGGAAACTCGGCC (.(((((....))))).) : high bin
GACCGGGGAAACCCAGTC (((.(((....))).))) : mid bin
GATCAGTCCGCTGATC ((((((....)))))) : low bin
GTATTACGAAAGTATAC (((.(((....)))))) : high bin
GATCAATTCGTTGATC ((((((....)))))) : mid bin
CGGGCGGAAACGCTTCCG ((((((....)))..))) : high bin
AGTACGAAAGTACT (((((....))))) : mid bin
GCCTCGGGAAACCGGGGC (((.(((....))).))) : mid bin
GACCAGGGAAACCCAGTC (((..((....))..))) : high bin
GGTGCAGGAAACTACACC ((((.((....)).)))) : mid bin
GATGGCGAAAGCCTGATC ((((((....)))..))) : high bin
GCCCCATCGAAAGATGGC (((..(((....)))))) : high bin
GCCCGGGGAAACCTGGGC ((((.((....)).)))) : low bin
GTGCGCGGAAACACGCAC (((((.(....).))))) : low bin
GATCCGCGTCGGATC ((((((...)))))) : mid bin
GTCGTCGAAAGACCGGAC ((((((....)))..))) : high bin
GGTCTGCGAAAGCAAACC (((.(((....))).))) : mid bin
GCTGTCGAAAGACAGAGC ((((((....)))..))) : high bin
GCTGCGCGAAAGCTCCGC ((.(.((....)).).)) : high bin
GAACCCGAAAGGGTCTTC ((((((....)))..))) : mid bin
GTAGCGGGAAACTGCTAC (((((.(....).))))) : mid bin
